Target: BCLXL WT (Homo sapiens (Human), UniProt Q07817)
Sequence (Q07817 other isoform, or with tags, fused parts or gaps): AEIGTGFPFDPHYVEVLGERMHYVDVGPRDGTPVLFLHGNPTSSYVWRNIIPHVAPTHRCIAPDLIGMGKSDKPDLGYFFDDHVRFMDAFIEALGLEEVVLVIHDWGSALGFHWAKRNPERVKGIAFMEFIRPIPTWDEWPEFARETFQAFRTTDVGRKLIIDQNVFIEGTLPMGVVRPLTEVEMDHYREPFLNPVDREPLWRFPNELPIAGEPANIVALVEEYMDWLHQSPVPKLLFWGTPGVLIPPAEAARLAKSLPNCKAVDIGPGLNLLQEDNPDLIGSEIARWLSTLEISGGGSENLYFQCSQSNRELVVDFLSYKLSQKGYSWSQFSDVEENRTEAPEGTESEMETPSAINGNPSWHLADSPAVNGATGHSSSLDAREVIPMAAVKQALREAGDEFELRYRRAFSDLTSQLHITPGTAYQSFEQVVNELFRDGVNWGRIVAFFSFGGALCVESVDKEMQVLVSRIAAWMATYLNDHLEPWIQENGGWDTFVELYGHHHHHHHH
Assay: TR-FRET competitive binding assay, BCLXL WT
Conditions: ratio Ki BCLxL / Ki BCL2 WT

query-smiles	subject-of-test	TR_FRET EKI BCLxL/WT selectivty ratio
Cc1c(N(C(=O)c2cc(-c3cc4c(cc3C(=O)N3Cc5ccccc5C[C@H]3CN3CCC(C)(C)C3)CN(C(=O)Cc3ccc(OCCN5CCOCC5)cc3F)CC4)n(C)c2C)c2ccc(O)cc2)cc(C#N)n1C	BCLXL WT (Homo sapiens (Human), UniProt Q07817)	81.4
Cc1c(N(C(=O)c2cc(-c3cc4c(cc3C(=O)N3Cc5ccccc5C[C@H]3CN3CCC5(CC5)C3)CN(C(=O)Cc3ccc(OCCN5CCOCC5)cc3F)CC4)n(C)c2C)c2ccc(O)cc2)cc(C#N)n1C	BCLXL WT (Homo sapiens (Human), UniProt Q07817)	74.2
COCCn1c(C#N)cc(N(C(=O)c2cc(-c3cc4c(cc3C(=O)N3Cc5ccccc5C[C@H]3C)CN(C(=O)Cc3ccc(OCCN5CCOCC5)cc3)CC4)n(C)c2C)c2ccc(O)cc2)c1C	BCLXL WT (Homo sapiens (Human), UniProt Q07817)	24.6
Cc1c(N(C(=O)c2cc(-c3cc4c(cc3C(=O)N3Cc5ccccc5C[C@H]3C)CN(C(=O)Cc3ccc(OCCN5CCOCC5)cc3)CC4)n(C)c2C)c2ccc(O)cc2)cnn1C1CCOCC1	BCLXL WT (Homo sapiens (Human), UniProt Q07817)	62.3
Cc1c(C(=O)N(c2ccc(O)cc2)c2cnn(C(F)F)c2)cc(-c2cc3c(cc2C(=O)N2Cc4ccccc4C[C@H]2C)CN(C(=O)Cc2ccc(OCCN4CCOCC4)cc2F)CC3)n1C	BCLXL WT (Homo sapiens (Human), UniProt Q07817)	410.0
Cc1c(N(C(=O)c2cc(-c3cc4c(cc3C(=O)N3Cc5ccccc5C[C@H]3CN3CCCCC3)CN(C(=O)COc3ccccc3)CC4)n(C)c2C)c2ccc(O)cc2)cc(C#N)n1C	BCLXL WT (Homo sapiens (Human), UniProt Q07817)	29.2
Cc1c(N(C(=O)c2cc(-c3cc4c(cc3C(=O)N3Cc5ccccc5C[C@H]3C)CN(C(=O)Cc3ccc(OCCN5CCOCC5)cc3)CC4)n(C)c2C)c2ccc(O)cc2)cc(C#N)n1C	BCLXL WT (Homo sapiens (Human), UniProt Q07817)	10.0
COc1ccc(N(C(=O)c2cc(-c3cc4c(cc3C(=O)N3Cc5ccccc5C[C@H]3CN3CCCCC3)CN(C(=O)Cc3ccc(OCCN5CCOCC5)cc3F)CC4)n(C)c2C)c2ccc(O)cc2)cn1	BCLXL WT (Homo sapiens (Human), UniProt Q07817)	277.8
Cc1c(C(=O)N(c2ccccc2)c2cnn(C)c2)cc(-c2cc3c(cc2C(=O)N2Cc4ccccc4C[C@H]2C)CN(C(=O)Cc2ccc(OCCN4CCOCC4)cc2F)CC3)n1C	BCLXL WT (Homo sapiens (Human), UniProt Q07817)	523.3
Cc1c(N(C(=O)c2cc(-c3cc4c(cc3C(=O)N3Cc5ccccc5C[C@H]3C)CN(C(=O)C(F)(F)c3ccccc3)CC4)n(C)c2C)c2ccc(O)cc2)cc(C#N)n1C	BCLXL WT (Homo sapiens (Human), UniProt Q07817)	100.7

* * *

Test system: BCL2 G101V
Assay: TR-FRET competitive binding assay, BCL2 G101V
Parameters: species or system human
Conditions: ratio Ki BCL2 G101V / Ki BCL2 WT
parameter-measured: TR_FRET EKI G101V/WT selectivty ratio

query-smiles	parameter-measured	measured-value
Cc1c(N(C(=O)c2cc(-c3cc4c(cc3C(=O)N3Cc5ccccc5C[C@H]3C)CN(C(=O)Cc3ccc(OCCN5CCOCC5)cc3)CC4)n(C)c2C)c2ccc(O)cc2)cc(C#N)n1C	TR_FRET EKI G101V/WT selectivty ratio	3.1
COCCn1cc(N(C(=O)c2cc(-c3cc4c(cc3C(=O)N3Cc5ccccc5C[C@H]3C)CN(C(=O)Cc3ccc(OCCN5CCOCC5)cc3)CC4)n(C)c2C)c2ccc(O)cc2)cn1	TR_FRET EKI G101V/WT selectivty ratio	12.2
Cc1c(N(C(=O)c2cc(-c3cc4c(cc3C(=O)N3Cc5ccccc5C[C@H]3C)CN(C(=O)Cc3ccc(N5CCN6CCOC[C@@H]6C5)cc3F)CC4)n(C)c2C)c2ccc(O)cc2)cc(C#N)n1C	TR_FRET EKI G101V/WT selectivty ratio	4.8
COc1ccc(N(C(=O)c2cc(-c3cc4c(cc3C(=O)N3Cc5ccccc5C[C@H]3CN3CC5(CCC5)C3)CN(C(=O)Cc3ccc(OCCN5CCOCC5)cc3F)CC4)n(C)c2C)c2ccc(O)cc2)cc1C#N	TR_FRET EKI G101V/WT selectivty ratio	9.9
Cc1c(N(C(=O)c2cc(-c3cc4c(cc3C(=O)N3Cc5ccccc5C[C@H]3C)CN(C(=O)Cc3ccc(N5CCN6CC(F)(F)C[C@H]6C5)cc3F)CC4)n(C)c2C)c2ccc(O)cc2)cc(C#N)n1C	TR_FRET EKI G101V/WT selectivty ratio	4.4
Cc1c(N(C(=O)c2cc(-c3cc4c(cc3C(=O)N3Cc5ccccc5C[C@H]3CN3CCCCC3)CN(C(=O)Cc3ccc(OCCN(C)C5CC5)cc3)CC4)n(C)c2C)c2ccc(O)cc2)cc(C#N)n1C	TR_FRET EKI G101V/WT selectivty ratio	6.5
Cc1c(N(C(=O)c2cc(-c3cc4c(cc3C(=O)N3Cc5ccccc5C[C@H]3CN3CCCCC3)CN(C(=O)Cc3ccc(OCCN5CCOCC5)cc3F)CC4)n(C)c2C)c2ccc(O)cc2)cc(C#N)n1C	TR_FRET EKI G101V/WT selectivty ratio	5.0
CCn1c(C#N)cc(N(C(=O)c2cc(-c3cc4c(cc3C(=O)N3Cc5ccccc5C[C@H]3C)CN(C(=O)Cc3ccc(OCCN5CCOCC5)cc3)CC4)n(C)c2C)c2ccc(O)cc2)c1C	TR_FRET EKI G101V/WT selectivty ratio	3.1
Cc1cccc(CC(=O)N2CCc3cc(-c4cc(C(=O)N(c5ccc(O)cc5)c5cc(C#N)n(C)c5C)c(C)n4C)c(C(=O)N4Cc5ccccc5C[C@H]4C)cc3C2)c1	TR_FRET EKI G101V/WT selectivty ratio	6.5
Cc1c(N(C(=O)c2cc(-c3cc4c(cc3C(=O)N3Cc5ccccc5C[C@H]3CN3CCC[C@H](C)C3)CN(C(=O)Cc3ccc(OCCN5CCOCC5)cc3F)CC4)n(C)c2C)c2ccc(O)cc2)cc(C#N)n1C	TR_FRET EKI G101V/WT selectivty ratio	4.3
